Please go through the items and note down their IC50.
# Tested on: NCI-H460
# experiment description: Antiproliferative activity against human NCI-H460 cells by MTT assay
# Format: functional, cell-based
All answers are understood in µM, so give the number only.

Query :: Query IC50 on NCI-H460 for COc1cccc2c1C(=O)c1c(O)c3c(c(O)c1C2=O)C[C@@](O)(C(=O)CO)C[C@@H]3O[C@H]1C[C@H](N)[C@H](O)[C@H](C)O1
Result :: 0.01

Query :: Query IC50 on NCI-H460 for C=C1CC[C@H]2C(C)(C)CCC[C@]2(C)[C@H]1CC1=C(O)C(=O)C(CO)=CC1=O
Result :: 4.3
